Cited source: DBAASP

Tested on: Bacillus subtilis 168

>  <Compound>
CC[C@H](C)[C@H](NC(=O)[C@H](CCCCN)NC(=O)[C@H](CCCCN)NC(=O)[C@@H](NC(=O)[C@@H](NC(=O)[C@H](CCCCN)NC(=O)[C@H](CCCCN)NC(=O)[C@@H](NC(=O)[C@@H](NC(=O)CN)[C@@H](C)CC)[C@@H](C)CC)[C@@H](C)CC)[C@@H](C)CC)C(N)=O [GIIKKIIKKI]

>  <Qualifying sign>
=

>  <MIC / µM>
30

$$$$
>  <Compound>
CC(C)C[C@H](NC(=O)[C@H](C)NC(=O)[C@H](C)NC(=O)CNC(=O)[C@H](Cc1c[nH]c2ccccc12)NC(=O)[C@H](CC(N)=O)NC(=O)[C@@H](N)CC(C)C)C(=O)N[C@@H](CCCCN)C(=O)N[C@@H](Cc1cnc[nH]1)C(=O)N[C@@H](C)C(=O)N[C@@H](C)C(=O)N[C@@H](CCCCN)C(N)=O [LNWGAALKHAAK]

>  <Qualifying sign>
≥

>  <MIC / µM>
100

$$$$
>  <Compound>
CC[C@H](C)[C@H](NC(=O)[C@H](CCCCN)NC(=O)[C@H](CCCCN)NC(=O)[C@H](CC(C)C)NC(=O)[C@H](CCCCN)NC(=O)[C@H](CCCCN)NC(=O)[C@H](Cc1c[nH]c2ccccc12)NC(=O)[C@H](CC(C)C)NC(=O)[C@H](CO)NC(=O)[C@H](CO)NC(=O)[C@H](CC(C)C)NC(=O)[C@H](CCCCN)NC(=O)CN)C(=O)N[C@H](C(=O)N[C@@H](C)C(=O)N[C@@H](CCCCN)C(N)=O)[C@@H](C)CC [GKLSSLWKKLKKIIAK]

>  <Qualifying sign>
=

>  <MIC / µM>
7

$$$$

###

Target or system Candida albicans: recorded MIC listed per item.

>  <Molecule smiles>
CC[C@H](C)[C@H](NC(=O)[C@H](Cc1ccccc1)NC(=O)[C@H](CCCN=C(N)N)NC(=O)[C@@H](N)CC(C)C)C(=O)N[C@@H](CC(C)C)C(=O)N[C@@H](Cc1c[nH]c2ccccc12)C(=O)N[C@@H](Cc1c[nH]c2ccccc12)C(=O)N[C@@H](CCCCN)C(=O)N[C@@H](CCCN=C(N)N)C(=O)O

>  <Target or system>
Candida albicans

>  <Reading unit>
µM

>  <Qualifying sign>
=

>  <MIC>
6.4

$$$$
>  <Molecule smiles>
CC[C@H](C)[C@H](NC(=O)[C@H](CCCN=C(N)N)NC(=O)[C@H](Cc1c[nH]c2ccccc12)NC(=O)[C@H](CC(C)C)NC(=O)[C@@H](N)CCCN=C(N)N)C(=O)N[C@H](C(=O)N[C@H](C(=O)N[C@H](C(=O)N[C@@H](CCCN=C(N)N)C(=O)N[C@H](C(=O)N[C@@H](C)C(=O)N[C@@H](CCCN=C(N)N)C(N)=O)C(C)C)[C@@H](C)CC)C(C)C)C(C)C

>  <Target or system>
Candida albicans

>  <Reading unit>
µM

>  <Qualifying sign>
=

>  <MIC>
5.21

$$$$
>  <Molecule smiles>
CSCC[C@H](NC(=O)[C@H](CCCCN)NC(=O)[C@H](Cc1ccccc1)NC(=O)[C@@H](N)Cc1c[nH]c2ccccc12)C(=O)N[C@@H](CCCN=C(N)N)C(=O)N[C@@H](Cc1c[nH]c2ccccc12)C(=O)N[C@@H](Cc1c[nH]c2ccccc12)C(=O)NCC(=O)N[C@@H](CCCN=C(N)N)C(=O)O

>  <Target or system>
Candida albicans

>  <Reading unit>
µM

>  <Qualifying sign>
=

>  <MIC>
11.5

$$$$
>  <Molecule smiles>
CC(C)C[C@H](NC(=O)[C@H](CCCCN)NC(=O)[C@H](CCCCN)NC(=O)[C@H](Cc1ccccc1)NC(=O)[C@H](Cc1ccccc1)NC(=O)[C@@H](N)CCCCN)C(=O)N[C@@H](CCCCN)C(=O)N[C@@H](CCCCN)C(=O)N[C@@H](C)C(=O)N[C@H](C(=O)N[C@@H](CCCCN)C(=O)N[C@@H](CCCCN)C(=O)NCC(=O)N[C@@H](Cc1ccccc1)C(=O)N[C@@H](CCCCN)C(=O)N[C@@H](CCCCN)C(=O)N[C@@H](Cc1ccccc1)C(=O)N[C@@H](C)C(=O)N[C@@H](CCCCN)C(=O)N[C@H](C(=O)O)C(C)C)C(C)C

>  <Target or system>
Candida albicans

>  <Reading unit>
µM

>  <Qualifying sign>
>

>  <MIC>
83.4

$$$$
>  <Molecule smiles>
CC[C@H](C)[C@H](NC(=O)[C@H](CCCN=C(N)N)NC(=O)[C@H](C)NC(=O)[C@H](CC(C)C)NC(=O)[C@H](CCCN=C(N)N)NC(=O)CNC(=O)[C@H](Cc1ccccc1)NC(=O)[C@@H](NC(=O)[C@H](CO)NC(=O)CNC(=O)[C@H](CC(C)C)NC(=O)CN)C(C)C)C(=O)N[C@@H](CC(C)C)C(=O)NCC(=O)N[C@@H](CCCN=C(N)N)C(=O)N[C@H](C(=O)N[C@H](C(=O)N1CCC[C@H]1C(=O)N[C@@H](CCCCN)C(=O)N[C@H](C(N)=O)C(C)C)[C@@H](C)CC)C(C)C

>  <Target or system>
Candida albicans

>  <Reading unit>
µM

>  <Qualifying sign>
>

>  <MIC>
4

$$$$
>  <Molecule smiles>
CC[C@H](C)[C@H](N)C(=O)N[C@H](C(=O)N[C@@H](CCCN=C(N)N)C(=O)N[C@@H](CCCN=C(N)N)C(=O)N[C@H](C(=O)N[C@@H](CCCN=C(N)N)C(=O)N[C@@H](CCCN=C(N)N)C(=O)N[C@H](C(=O)N[C@H](C(N)=O)[C@@H](C)CC)[C@@H](C)CC)[C@@H](C)CC)[C@@H](C)CC

>  <Target or system>
Candida albicans

>  <Reading unit>
µM

>  <Qualifying sign>
>

>  <MIC>
64

$$$$
